List of EC50 values.
- tgt: CB2 receptor (Homo sapiens)
- Construct: expressed in transfected cells
- Sequence (P34972 whole entry): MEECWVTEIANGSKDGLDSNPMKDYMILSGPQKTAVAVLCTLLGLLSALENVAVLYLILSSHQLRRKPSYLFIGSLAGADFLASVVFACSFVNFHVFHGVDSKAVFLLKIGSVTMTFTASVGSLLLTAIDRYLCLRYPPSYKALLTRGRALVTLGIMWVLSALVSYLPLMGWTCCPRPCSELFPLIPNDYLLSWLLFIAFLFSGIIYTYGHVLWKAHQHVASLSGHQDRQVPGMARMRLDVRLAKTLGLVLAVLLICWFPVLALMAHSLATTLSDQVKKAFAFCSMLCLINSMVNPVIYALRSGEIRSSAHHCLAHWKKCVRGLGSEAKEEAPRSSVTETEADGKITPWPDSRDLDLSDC
- assay.text: Functional cell-based assay, CB2 receptor mediated change in CRE β-gal expression (SK-N-MC cells)
- condition: CB2 Receptor Functional Agonist EC50, forskolin induced β-galactosidase activity, SK-N-MC cells
Give the number; nM is assumed, so skip it.

As a guide, the following entries are already answered.
C[C@H](NS(=O)(=O)/C=C/c1n[nH]c2c1CCCCC2Cc1cccc(F)c1)c1ccccc1 (single isomer, unassigned) | 9
O=C(N[C@@H](CO)c1ccccc1)c1n[nH]c2c1CCCC/C2=C\c1ccc(Cl)cc1 | 5
COC[C@H](NC(=O)c1n[nH]c2c1CCCC[C@@H]2Cc1cccc(Cl)c1)c1ccccc1 (stereo in doubt) | 2

Exam item: I am curious: what EC50 value has been reported for O=C(N[C@H](CO)c1ccccc1)c1n[nH]c2c1CCCCC2Cc1cccc(Cl)c1 (single isomer, unassigned) [Cpd 231] ?
Marked response: 12

Exam item: I am curious: what EC50 value has been reported for O=C(N[C@@H](CO)c1ccccc1)c1n[nH]c2c1CCCC/C2=C\c1cccc(Cl)c1 ?
Marked response: 0.6

Exam item: I am curious: what EC50 value has been reported for O=C(N[C@H](CO)c1ccccc1)c1n[nH]c2c1CCCCC2Cc1cccc(Cl)c1 (single isomer, unassigned) [Cpd 230] ?
Marked response: 2

Exam item: I am curious: what EC50 value has been reported for COC(=O)[C@H](Cc1ccc(F)cc1)NC(=O)c1n[nH]c2c1CCCC/C2=C\c1ccc(Cl)cc1 ?
Marked response: 1

Exam item: I am curious: what EC50 value has been reported for Cn1nc(C(=O)N[C@H](CCO)c2ccccc2)c2c1/C(=C/c1cccc(F)c1)CCCC2 ?
Marked response: 47

Exam item: I am curious: what EC50 value has been reported for COC(=O)[C@H](Cc1ccc(F)cc1)NC(=O)c1n[nH]c2c1CCCC/C2=C\c1cccc(Cl)c1 ?
Marked response: 13

Exam item: I am curious: what EC50 value has been reported for O=C(N[C@@H](CO)c1ccccc1)c1n[nH]c2c1CCCCC2Cc1cccc(Cl)c1 (stereo in doubt) ?
Marked response: 2

Exam item: I am curious: what EC50 value has been reported for C[C@H](NS(=O)(=O)/C=C/c1n[nH]c2c1CCCC/C2=C\c1ccc(Cl)cc1)c1ccccc1 ?
Marked response: 9

Exam item: I am curious: what EC50 value has been reported for COC(=O)[C@@H](Cc1ccc(F)cc1)NC(=O)c1n[nH]c2c1CCCC/C2=C\c1ccc(Cl)cc1 ?
Marked response: 4

Exam item: I am curious: what EC50 value has been reported for COC(=O)[C@H](Cc1ccc(F)cc1)NC(=O)c1nn(C)c2c1CCCC/C2=C\c1cccc(F)c1 ?
Marked response: 18

Exam item: I am curious: what EC50 value has been reported for COC[C@@H](NC(=O)c1n[nH]c2c1CCCC[C@H]2Cc1cccc(Cl)c1)c1ccccc1 (stereo in doubt) ?
Marked response: 19

Exam item: I am curious: what EC50 value has been reported for COC(=O)[C@@H](Cc1ccc(F)cc1)NC(=O)c1n[nH]c2c1CCCC/C2=C\c1cccc(Cl)c1 ?
Marked response: 1
